Experiment: Cell Viability - LYMP1-002 - Assay at 24 hr (AID 993); also: potency is read from the fitted curve at half-maximal effect
Conditions: LYMP1-002 lymphoblastoid cells viability; series mostly up to 92.2 µM
Active and inactive are the calls of the source. Calls follow the shape of the dose curve; as a rule, active = well fitted cell-killing curve with a large enough effect; inconclusive = small, poorly fitted or top-dose-only effect; inactive = flat fitted curve, though single readings scatter.
Recorded Endpoint: Potency

// known answers, use as guide
FC(F)(F)c1ccc(Cl)cc1 :: inactive
O=Nc1ccc(Nc2ccccc2)cc1 :: 7.94 µM (active)
CC(=O)[O-].CC(=O)[O-].O.O.[Cd+2] :: inactive
O=[N+]([O-])C(Br)Br :: inactive

Please give Potency for each item listed below.
1. C#CCO
2. COP(=O)(OC)O/C(=C\Cl)c1cc(Cl)c(Cl)cc1Cl

# output
inactive
inactive

---

Kindly state max response for each of the entries shown.
Biological target: Nuclear receptor subfamily 1 group I member 2 (Rattus norvegicus) (UniProt Q9R1A7)
Sequence (Q9R1A7 whole entry, looked up): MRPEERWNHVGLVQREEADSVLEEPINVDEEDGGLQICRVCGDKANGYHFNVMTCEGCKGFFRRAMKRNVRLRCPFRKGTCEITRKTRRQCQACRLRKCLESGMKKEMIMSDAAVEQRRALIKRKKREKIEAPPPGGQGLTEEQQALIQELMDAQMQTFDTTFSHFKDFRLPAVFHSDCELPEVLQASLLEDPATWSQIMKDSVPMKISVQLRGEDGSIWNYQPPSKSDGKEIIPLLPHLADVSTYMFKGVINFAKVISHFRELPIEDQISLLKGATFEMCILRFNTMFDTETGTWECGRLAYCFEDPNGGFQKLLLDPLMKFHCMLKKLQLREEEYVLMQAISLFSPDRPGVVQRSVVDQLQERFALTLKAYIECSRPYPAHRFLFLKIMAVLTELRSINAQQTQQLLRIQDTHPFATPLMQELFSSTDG
Assay: qHTS assay for small molecule activators of the rat pregnane X receptor (rPXR) signaling pathway (AID 651751); also: 0% is about no effect
Details: rPXR reporter cells, luciferase (One-Glo), 24 h
Numbers only, in %.

// known answers, use as guide
CCOP(N)(=O)Oc1ccc(SC)c(C)c1 (stereo unspecified) :: 4.69
CCCCOC(=O)[C@@H](C)Oc1ccc(Oc2ccc(C#N)cc2F)cc1 :: 1.04
CCC(C)n1c(=O)[nH]c(C)c(Br)c1=O (stereo unspecified) :: -6.26
O=S(=O)(c1ccc(O)cc1)c1ccc(O)cc1 :: -2.78
CCOC(=O)COc1cc(-c2nn(C)c(OC(F)F)c2Cl)c(F)cc1Cl :: 0.553
C1=Cc2cccc3cccc1c23 :: 3.17

Please give max response for each item listed below.
1. COC(=O)C(C)Oc1ccc(Oc2ccc(Cl)cc2Cl)cc1 (stereo unspecified)
2. COP(=O)(OC)Oc1nc(Cl)c(Cl)cc1Cl
3. COc1nn(C(=O)NS(=O)(=O)c2ccccc2OC(F)(F)F)c(=O)n1C
4. CNC(=O)Oc1cccc(N=CN(C)C)c1
5. CC1(C)Cc2cccc(O)c2O1
6. N#Cc1cc(I)c(O)c(I)c1
7. CCCCCCCCCCCC#N

# output
[-0.585, 0.764, 1.31, -4.82, 1.61, -7.71, 0.164]

Please give max response for each item listed below.
1. Cc1[nH]c(=O)n(C(C)(C)C)c(=O)c1Cl
2. Nc1nc(N)nc(N)n1
3. CC(C)=C[C@@H]1[C@@H](C(=O)OCN2C(=O)C3=C(CCCC3)C2=O)C1(C)C

# output
1. 0.145
2. -3.43
3. 4.94

---

Test: qHTS assay for small molecule agonists of the antioxidant response element (ARE) signaling pathway (AID 651741); also: potency is read from the fitted curve at half-maximal effect; as to activation: % of control where 0% means no effect
Details: HepG2 ARE-bla reporter, beta-lactamase FRET ratio, 16 h; series mostly up to 96 µM
Inconclusive results are not listed. Activity calls are given as the source filed them. Calls come from the whole dose curve; as a rule, active = well fitted activation curve with a large enough effect in the signal ratio; inconclusive = small, poorly fitted or top-dose-only effect, or effect the other way, or a change in a side signal; inactive = flat fitted curve, though single readings scatter; the % refers to the signal ratio.
Recorded Endpoint: Potency

// known answers, use as guide
O=C(O)C(F)(F)C(F)(F)C(F)(F)C(F)(F)C(F)(F)F :: inactive
C=C(C)C(=O)OCC(CC)CCCC (centres undefined) :: inactive
CC(C)(C)N(NC(=O)c1ccc(Cl)cc1)C(=O)c1ccccc1 :: inactive
CSc1nnc(C(C)(C)C)c(=O)n1N :: inactive
Cc1ccn2nc(S(=O)(=O)Nc3c(F)cccc3F)nc2n1 :: inactive

Please give Potency for each item listed below.
1. c1ccc2c(c1)ccc1c3ccccc3ccc21
2. CC1COC(Cn2cncn2)(c2ccc(Oc3ccc(Cl)cc3)cc2Cl)O1 (centres undefined)
3. COCC(=O)N(c1c(C)cccc1C)N1CCOC1=O
4. Cc1cc(Cl)ccc1OC(C)C(=O)O (centres undefined)
5. CN(C)c1nc(=O)n(C2CCCCC2)c(=O)n1C
6. CC(C)[C@H](C(=O)O[C@H](C#N)c1cccc(Oc2ccccc2)c1)c1ccc(Cl)cc1

# output
4.33 µM (active)
15.4 µM (active)
inactive
inactive
inactive
61.1 µM (active)

Please give Potency for each item listed below.
1. CSC1=N[C@@](C)(c2ccccc2)C(=O)N1Nc1ccccc1
2. CC1(C)Cc2cccc(O)c2O1
3. O=P(OCC(Br)CBr)(OCC(Br)CBr)OCC(Br)CBr (centres undefined)

# output
1. 6.86 µM (active)
2. inactive
3. 15.4 µM (active)

---

Target: Peroxisome proliferator-activated receptor gamma (Homo sapiens) (UniProt P37231)
Sequence (P37231 whole entry, looked up): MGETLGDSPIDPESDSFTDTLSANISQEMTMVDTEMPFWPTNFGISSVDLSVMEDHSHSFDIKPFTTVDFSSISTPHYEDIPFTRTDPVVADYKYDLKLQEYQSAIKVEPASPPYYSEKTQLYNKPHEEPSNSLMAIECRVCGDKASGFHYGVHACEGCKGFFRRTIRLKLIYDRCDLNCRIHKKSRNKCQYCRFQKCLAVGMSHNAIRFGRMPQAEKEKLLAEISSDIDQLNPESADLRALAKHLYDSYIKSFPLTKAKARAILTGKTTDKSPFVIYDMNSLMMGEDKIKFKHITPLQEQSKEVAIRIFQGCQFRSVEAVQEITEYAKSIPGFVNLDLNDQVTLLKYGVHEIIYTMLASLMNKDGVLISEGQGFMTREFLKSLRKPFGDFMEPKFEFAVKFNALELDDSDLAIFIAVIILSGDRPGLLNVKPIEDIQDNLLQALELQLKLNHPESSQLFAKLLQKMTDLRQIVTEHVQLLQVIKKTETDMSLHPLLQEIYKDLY
Experiment: qHTS assay for small molecule agonists of peroxisome proliferator-activated receptor gamma signaling (AID 588536);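 also: 0% = DMSO basal wells and 100% = rosiglitazone at 2 µM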
Details: HEK293 PPARg-UAS-bla, beta-lactamase ratio, 16 h; series mostly up to 76.7 µM
Results filed as inconclusive are left out. Active and inactive are the calls of the source. Calls follow the shape of the dose curve; as a rule, active = well fitted curve in the direction sought with a large enough effect in the signal ratio, with a control signal flat (not every such curve was filed as active); inconclusive = small, poorly fitted or top-dose-only effect, or effect the other way, or a change in a side signal; inactive = no such curve, though single readings can be large or run the other way; the % refers to the signal ratio.
Log the outcome using a class from 1 = active, 0 = inactive

CN(C)c1ccc(C(=O)c2ccc(N(C)C)cc2)cc1 :: 0

# input # fetch the recorded call for "Cc1cc(C)nc(Nc2ccccc2)n1" here
# output 0

---

Tested on: CP325
Experiment: qHTS profiling for inhibitors of Plasmodium falciparum proliferation (AID 504749);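 also: 0% = DMSO vehicle and full inhibition = artemisinin control; nearly all actives have a fitted effect of over 60% in size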
Settings: P. falciparum in erythrocytes, SYBR Green DNA, 72 h; series mostly up to 28.7 µM
Results filed as inconclusive are left out. The source made the active and inactive calls. The call rests on the fitted dose curve; in most records, active means well fitted inhibition curve with a large enough effect; inconclusive means small, poorly fitted or top-dose-only effect; inactive means flat fitted curve, though single readings scatter.
Log the outcome using a class from active, inactive

The following molecules have reported results that may help.
C[C@]12CCC3C(CCC4=C(Cl)C(=O)CC[C@@]43C)C1CCC2O (some centres not stated) :: inactive
C[C@]12CC[C@H]3[C@@H](CC[C@@]45O[C@@H]4C(=O)C(C#N)C[C@]35C)[C@@H]1CC[C@@H]2O (some centres not stated) :: inactive
C=C1Nc2ccccc2C(=O)N1c1ccccc1C :: inactive
CC(Cc1ccccc1)N(C)C (configuration not stated) :: inactive
CC(CO)NC(=O)C1C=C2c3cccc4[nH]cc(c34)CC2N(C)C1 (configuration not stated) :: inactive
CCN(CC)C(=O)N[C@@H]1C=C2c3cccc4[nH]cc(c34)C[C@H]2N(C)C1 :: inactive
CC(=O)O[C@H]1C[C@H](O[C@H]2[C@@H](O)CC(O[C@H]3[C@@H](O)C[C@H](O[C@H]4CC[C@@]5(C)[C@H](CC[C@@H]6[C@@H]5CC[C@]5(C)[C@@H](C7=CC(=O)OC7)CC[C@]65O)C4)O[C@@H]3C)O[C@@H]2C)O[C@H](C)[C@H]1O[C@@H]1O[C@H](CO)[C@@H](O)[C@H](O)[C@H]1O (some centres not stated) :: inactive
CC(C)CCC(=O)OC1CCC2C3CCC4=CC(=O)CC[C@]4(C)C3CC[C@]12C (some centres not stated) :: inactive

# input # fetch the recorded call for CC(=O)[C@H]1CC[C@H]2C3CC[C@H]4C[C@H](O)CC[C@]4(C)C3CC[C@]12C (some centres not stated) here
# output inactive

# input # fetch the recorded call for CC(C)=CC1C(C(=O)OCc2coc(Cc3ccccc3)c2)C1(C)C (configuration not stated) here
# output inactive

# input # fetch the recorded call for C=CC[N+]1(C)CCC23c4c5ccc(O)c4O[C@H]2C(=O)CC[C@@]3(O)C1C5 (some centres not stated) here
# output inactive

---

Target: Bile acid receptor (Homo sapiens) (UniProt Q96RI1)
Sequence (Q96RI1 whole entry, looked up): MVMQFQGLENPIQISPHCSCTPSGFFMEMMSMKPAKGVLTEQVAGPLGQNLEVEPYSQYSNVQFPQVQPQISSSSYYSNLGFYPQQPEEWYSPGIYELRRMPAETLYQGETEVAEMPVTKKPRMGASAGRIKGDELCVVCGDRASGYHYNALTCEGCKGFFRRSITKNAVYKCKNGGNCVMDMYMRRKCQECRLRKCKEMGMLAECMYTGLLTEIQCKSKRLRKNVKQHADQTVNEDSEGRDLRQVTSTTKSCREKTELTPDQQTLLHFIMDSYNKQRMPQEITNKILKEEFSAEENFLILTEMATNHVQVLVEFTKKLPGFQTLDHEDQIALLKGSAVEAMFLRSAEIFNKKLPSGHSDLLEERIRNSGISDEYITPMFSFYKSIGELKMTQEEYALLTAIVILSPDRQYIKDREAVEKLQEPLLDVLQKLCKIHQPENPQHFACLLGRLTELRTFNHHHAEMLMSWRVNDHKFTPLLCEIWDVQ
Test: qHTS assay for small molecule agonists of farnesoid X receptor signaling (AID 588527);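 also: 0% = vehicle basal and 100% = reference agonist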
Conditions: HEK293T FXR-UAS-bla, beta-lactamase ratio, 16 h; active compounds read high
Text: NIH Chemical Genomics Center [NCGC] U.S. Environmental Protection Agency [EPA] National Institutes of Environmental Health Sciences [NIEHS] National Toxicology Program [NTP] […] NCGC Assay Protocol Summary Using a beta-lactamase reporter-gene under control of Farnesoid X receptor (FXR) response element, a cell-based assay [GeneBLAzer FXR-UAS-bla assay developed by Invitrogen] was used to measure FXR ligands signaling. […] Detection; Fluorescence; Envision plate reader
Results filed as inconclusive are left out.
Recorded Endpoint: activation (%)
Answers are plain numbers, in %.

// known answers, use as guide
O=C(O)C1(O)c2ccccc2-c2ccc(Cl)cc21 (centres undefined) :: 8.73
CCC(O)C(C)(C)C (centres undefined) :: 0.367
O=C(O)c1ccccc1Cl :: 1.39

Kindly consider the entry below.
# input # lookup: Bile acid receptor (Homo sapiens) (UniProt Q96RI1) activation, key = CCCCC(C=O)CC (centres undefined)
# output -2.35

---

Molecular target: Retinoic acid receptor RXR-alpha (Homo sapiens)
Test: qHTS assay for small molecule antagonists of retinoid X receptor alpha signaling (AID 588546);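 also: cells stimulated with 9-cis-retinoic acid as agonist; % is scaled to controls: 0 for no effect and ±100 for the full control effect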
Settings: HEK293T RXRa-UAS-bla, beta-lactamase ratio, antagonist mode
Results filed as inconclusive are left out.
Recorded Endpoint: max response (%)
One number for each entry, in %.

C#CCN1C(=O)COc2cc(F)c(N3C(=O)C4=C(CCCC4)C3=O)cc21 :: -8.58

Please give max response for each item listed below.
1. CC(C)(c1ccccc1)c1cc(-n2nc3ccccc3n2)c(O)c(C(C)(C)c2ccccc2)c1
2. COCC(=O)N(c1c(C)cccc1C)[C@H](C)C(=O)OC
3. Cc1nn(-c2cc(NS(C)(=O)=O)c(Cl)cc2Cl)c(=O)n1C(F)F
4. O=P(Oc1ccccc1)(Oc1ccccc1)Oc1ccccc1
5. O=C(O)C(F)(F)C(F)(F)C(F)(F)C(F)(F)C(F)(F)F
6. CC1(C)CON(Cc2ccccc2Cl)C1=O
7. O=Cc1cccc(Oc2ccccc2)c1

# output
0.796
-14.1
-28.1
-15.3
-23
-4.63
1.63

Please give max response for each item listed below.
1. CCCCNC(=O)OCC#CI
2. CNC(=O)O/N=C(\C)SC

# output
1: -22.6; 2: 8.15

Please give max response for each item listed below.
1. COc1cc(OC)nc(NC(=O)NS(=O)(=O)c2cc(NC=O)ccc2C(=O)N(C)C)n1
2. O=[N+]([O-])c1ccc(Nc2ccccc2)cc1
3. c1cc2c3c(cccc3c1)CC2

# output
1. 14.5
2. -16.2
3. -3.28

Please give max response for each item listed below.
1. CCNc1nc(NC(C)C)nc(OC)n1
2. CCOP(=S)(OCC)Oc1ccc(S(C)=O)cc1 (configuration not stated)
3. CC(=NC#N)N(C)Cc1ccc(Cl)nc1
4. CCNP(=S)(OC)O/C(C)=C/C(=O)OC(C)C (configuration not stated)
5. C#CC(C)(C)NC(=O)c1cc(Cl)cc(Cl)c1
6. FC(F)C(F)(F)OCC(Cn1cncn1)c1ccc(Cl)cc1Cl (configuration not stated)
7. FC(F)(F)c1ccc(OCCCOc2c(Cl)cc(OCC=C(Cl)Cl)cc2Cl)nc1

# output
[2.56, -34.4, -19.1, 3.14, -9.81, 4.82, 3.21]

Please give max response for each item listed below.
1. CCOc1nc(C(Cl)(Cl)Cl)ns1
2. Nc1nc(N)nc(N)n1

# output
3.55
-7.03
